Here, molecules appear alongside log10 of Ki reported for Adenosine receptor A2a (Homo sapiens) in the literature.
measuredParameter: log10 of Ki (log10 of the value in nM)

- molecule: "c1ccc(Nc2nc(NC3CCCCCC3)c3[nH]cnc3n2)cc1"
  targetDesc: "Adenosine receptor A2a (Homo sapiens)"
  observedValue: 3.61
- molecule: "COC[C@H]1CCCN1c1cc(Nc2cnccn2)nc(-n2nc(C)cc2C)n1"
  targetDesc: "Adenosine receptor A2a (Homo sapiens)"
  observedValue: 1.84
- molecule: "CCCn1c(=O)c2nc(-c3cc(OCC(=O)c4ccc(F)cc4)nn3C)[nH]c2n(CCC)c1=O"
  targetDesc: "Adenosine receptor A2a (Homo sapiens)"
  observedValue: 1.10
- molecule: "CCCn1c(=O)n(C)c(=O)c2[nH]c(-c3ccc(OCC(=O)N4CCN(c5ccc(C(F)(F)F)cc5)CC4)cc3)cc21"
  targetDesc: "Adenosine receptor A2a (Homo sapiens)"
  observedValue: 2.51
- molecule: "Cc1ccc(Nc2nc(N(C)C)c(C(=O)Nc3sc4c(c3C(N)=O)CCCC4)s2)cc1"
  targetDesc: "Adenosine receptor A2a (Homo sapiens)"
  observedValue: 4.35
- molecule: "O=C(Cc1ccc(F)cc1)Nc1nc2nn(CCCc3ccccc3)cc2c2nc(-c3ccco3)nn12"
  targetDesc: "Adenosine receptor A2a (Homo sapiens)"
  observedValue: 2.32
- molecule: "Cn1c(=O)c2c(cc(/C=C/c3ccccc3O)n2C)n(C)c1=O"
  targetDesc: "Adenosine receptor A2a (Homo sapiens)"
  observedValue: 3.06
- molecule: "CCCn1c(=O)c2[nH]c(-c3ccc(OCC(=O)N4CCN(c5ccccc5Cl)CC4)cc3)cc2n(CCC)c1=O"
  targetDesc: "Adenosine receptor A2a (Homo sapiens)"
  observedValue: 1.58
- molecule: "CCCn1c(=O)c2nc(-c3cnn(Cc4cccc(Cl)c4F)c3)[nH]c2n(CCC)c1=O"
  targetDesc: "Adenosine receptor A2a (Homo sapiens)"
  observedValue: 2.94
- molecule: "N#Cc1ccc(N2CCN(CCn3ncc4c3nc(N)n3nc(-c5ccco5)nc43)CC2)cc1"
  targetDesc: "Adenosine receptor A2a (Homo sapiens)"
  observedValue: 0.32
- molecule: "CC(C)n1cc2c(C(N)=O)nc(N)nc2n1"
  targetDesc: "Adenosine receptor A2a (Homo sapiens)"
  observedValue: 3.96
- molecule: "CC(Oc1ccc(-c2cc3c([nH]2)c(=O)n(C)c(=O)n3C)cc1)C(=O)N1CCN(c2ccc(Br)cc2)CC1 (centres undefined)"
  targetDesc: "Adenosine receptor A2a (Homo sapiens)"
  observedValue: 2.43
- molecule: "CCNc1nc(-n2cc(-c3ccc(OC)cc3)cn2)nc2c1ncn2[C@@H]1O[C@H](CO)[C@@H](O)[C@H]1O"
  targetDesc: "Adenosine receptor A2a (Homo sapiens)"
  observedValue: 3.60
- molecule: "C(#Cc1ncnc2ccccc12)c1ccccc1"
  targetDesc: "Adenosine receptor A2a (Homo sapiens)"
  observedValue: 3.60
- molecule: "Cc1cc(C)n(-c2nc(Nc3ccccn3)cc(N3CCc4ccccc4C3)n2)n1"
  targetDesc: "Adenosine receptor A2a (Homo sapiens)"
  observedValue: 1.81
- molecule: "Nc1nc(-c2ccc3c(c2)OCO3)cn2c(=O)n(-c3ccccc3)nc12"
  targetDesc: "Adenosine receptor A2a (Homo sapiens)"
  observedValue: 0.87
- molecule: "COc1ccc(N(CC(F)(F)F)C(C)=O)c2sc(NC(=O)c3ccc(F)cc3)nc12"
  targetDesc: "Adenosine receptor A2a (Homo sapiens)"
  observedValue: 1.54
- molecule: "C[C@@H](Oc1ccc(Cl)cc1)C(=O)Nc1nc(-c2ccccc2)n[nH]1"
  targetDesc: "Adenosine receptor A2a (Homo sapiens)"
  observedValue: 3.60
- molecule: "Nc1nc2cnn(CCCc3ccccc3)c2c2nc(-c3ccco3)nn12"
  targetDesc: "Adenosine receptor A2a (Homo sapiens)"
  observedValue: 2.09
- molecule: "O=C(COc1ccccc1)Nc1nc2nn(CCCc3ccccc3)cc2c2nc(-c3ccco3)nn12"
  targetDesc: "Adenosine receptor A2a (Homo sapiens)"
  observedValue: 1.65
- molecule: "CCCn1c(=O)n(C)c(=O)c2[nH]c(-c3ccc(OCC(=O)Nc4ccccc4)cc3)cc21"
  targetDesc: "Adenosine receptor A2a (Homo sapiens)"
  observedValue: 2.29
- molecule: "CCN[C@H]1CCN(CC(=O)Nc2cc(-n3nc(C)cc3C)nc(-c3ccc(C)o3)n2)C1"
  targetDesc: "Adenosine receptor A2a (Homo sapiens)"
  observedValue: 0.40
- molecule: "Nc1nc(-c2ccco2)c2cnn(Cc3cccc(OCCCCC(=O)NO)n3)c2n1"
  targetDesc: "Adenosine receptor A2a (Homo sapiens)"
  observedValue: 1.71
- molecule: "CCCn1c(=O)c2[nH]c(-c3ccc(OCC(=O)N4CCN(c5c(Cl)cncc5Cl)CC4)cc3)cc2n(CCC)c1=O"
  targetDesc: "Adenosine receptor A2a (Homo sapiens)"
  observedValue: 1.87
- molecule: "Cc1cc(C)n(-c2nc(Nc3cnccn3)cc(N3CCc4ccccc4C3)n2)n1"
  targetDesc: "Adenosine receptor A2a (Homo sapiens)"
  observedValue: 0.04
- molecule: "Nc1nc(OCCc2ccc(F)cc2)nc2c1ncn2[C@@H]1O[C@H](CO)[C@@H](O)[C@H]1O"
  targetDesc: "Adenosine receptor A2a (Homo sapiens)"
  observedValue: 1.75
- molecule: "Nc1nc2cn(CCc3ccccc3)nc2c2nc(-c3ccco3)nn12"
  targetDesc: "Adenosine receptor A2a (Homo sapiens)"
  observedValue: 0.96
